For each of the compounds below, state its Viability Percent DMSO.
# System: Huh-7.5.1 cells
# Assay: Cell viability in the chemical screen (Cell TiterGlo)
# Measurement Parameters: 10 µM compound, 72 h
Numbers only, in Percent DMSO.

Solved cases below.
[[record]]
compound = "CCOC(=O)c1c(C)n(C)c2ccc(O)cc12 [Mecarbinate]"
value_units = "Percent DMSO"
endpoint_result = 100

[[record]]
compound = "Nc1ccn([C@@H]2O[C@H](CO)[C@@H](O)[C@@H]2O)c(=O)n1"
value_units = "Percent DMSO"
endpoint_result = 97


Entry Cc1ccnc2c1NC(=O)c1cccnc1N2C1CC1 : Viability Percent DMSO on Huh-7.5.1 cells = 100

meta.source: paper PMC12282101
